For each record, write down the corresponding growth inhibition.
- assay method text: NCI Yeast Anticancer Drug Screen. Data for the rad50 strain (AID 155);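 further: 0% = growth of vehicle-only cultures of the same strain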
- condition summary: S. cerevisiae rad50 strain growth inhibition; at 50.0 µM; active compounds read high
Compounds without any hit were thinned out: in the full panel of roughly 79,000, 15% have a hit. Where a SMILES comes first, the peptide text is derived from it. The star is where a group is joined. Boc = CC(C)(C)OC(=O)*; OtBu = CC(C)(C)O*
// note: answer is a bare numeric in %

So what does the record say about growth inhibition for CC(=O)Nc1ccc2oc(=O)[nH]c(=O)c2c1 ?
10.8

Name the recorded growth inhibition for C/C(=N\NS(=O)(=O)c1ccc(C)cc1)P(=O)(O)O .
-6.85

I have this compound here, CCOC(=O)N[C@@H]1C(CC(=O)OC)O[C@H]2OC(C)(C)O[C@H]21 (stereo partly specified) , and I need its recorded growth inhibition.
18.1

// returns reported growth inhibition for input OCC1CC=CCC1 (stereo unspecified)
2.35

Fill blank: measured growth inhibition of the compound O=c1[nH]c(NCc2ccncc2)nc2nc[nH]c12 is ____.
10.2

For the compound CS1(C)=NC(=O)C2=C(N=1)c1ccccc1S2(=O)=O , what growth inhibition is on record?
-10.9

Which growth inhibition value belongs to Cc1ccc(N2C(=O)/C(=C3\Sc4c(nc(C)n(C)c4=O)N3c3ccccc3)SC2=S)cc1 ?
-20.9

If you can, please state the reported growth inhibition value of CCOC(=O)NC(=S)NC(C)c1ccccc1 (stereo unspecified) .
-10.2

Tell me the measured growth inhibition of CC(C)(C)OC(=O)CC(NC(=O)OC(C)(C)C)C(=O)NC(Cc1ccccc1)C(N)=O (stereo unspecified) (Boc-Asp(OtBu)-Phe-NH2; configuration not given here) , please.
-23.1

Look at this compound and give its reported growth inhibition. CC(=O)CC(C)(C)NC(=S)Nc1ccc(C)cc1
22.6

Using the record for CC(=O)c1c(-c2nc(=S)[nH]c(C)c2C(C)=O)nc(=S)[nH]c1C , report its growth inhibition.
15.1

Find the recorded growth inhibition belonging to C/C=C1\OC(n2cnc3c(N)ncnc32)C(O)C1O (stereo unspecified) and report it.
-0.3

Name the reported growth inhibition value associated with the compound Clc1ccccc1CSc1cc(SCc2ccccc2Cl)nc(SCc2ccccc2Cl)n1
-8

Given C=CCC1C(=O)NN=C1C (stereo unspecified) , state its recorded growth inhibition.
5.05

Request the reported growth inhibition associated with COc1cc2c(c([N+](=O)[O-])c1)NC(=O)CC(C)S2 (stereo unspecified)
-48.8

Return reported growth inhibition; argument: O=C(O)c1ccccc1Sc1ccc([N+](=O)[O-])cn1
33.2

GET /values?readout=growth inhibition&item= O=[N+]([O-])c1ccc2c(ccn2C2OCC(O)C(O)C2O)c1 (stereo unspecified)
5.7

Consider the compound CCOC(=O)C/C(C)=C1/N=C(c2ccccc2)OC1=O and give its measured growth inhibition.
28.9

Any idea what growth inhibition was measured for CC[C@H]1OC(=O)[C@H](C)[C@@H](OC2CC(C)(OC)C(O)C(C)O2)[C@H](C)[C@@H](OC2OC(C)CC(N(C)C)C2OC(=O)CCC2CCCC2)[C@](C)(O)C[C@@H](C)C(=O)[C@H](C)[C@@H](O)[C@]1(C)O (stereo partly specified) ?
3.25

Using the record for CC(C)(C)c1cc(-c2cc(C(C)(C)C)[nH]n2)n[nH]1 , report its growth inhibition.
12.8

Item CCOC(C#CC(C)=O)OCC has what recorded growth inhibition?
31.1

What measured growth inhibition goes with COc1cc(OC)c(C2CC(C)(O)Oc3cc4c(cc32)OCO4)c(OC)c1 (stereo unspecified) ?
17.4

So what's the measured growth inhibition for this one? CC(C)=NOC(=O)Nc1ccccc1
44.4

Fill blank: measured growth inhibition of the compound C1CC2(CC3(C1)SCCS3)SCCS2 is ____.
-0.3

// returns reported growth inhibition for input COc1ccc(-c2nc(N3CCCC3)no2)cc1
-0.85

What does the data say about its growth inhibition? Entry: O=C(O)CCC(=O)c1ccc2c3c(cccc13)CC2
22.6

Query (compound): c1ccc(CNC(c2ccccc2)C(NCc2ccccc2)c2ccccc2)cc1 (stereo unspecified) ; field requested: growth inhibition
-7.35

growth inhibition lookup needed for O=c1ccc2c(O)cc(O)cc2o1 , thanks.
-8.9

Item under review: Cc1c2occc2cc2c1oc(=O)c1cnccc12 . Reported growth inhibition?
0.95

Quick check: growth inhibition of O=C1c2ccccc2C(=O)N1CCCSc1ccccc1 ?
-10.2

# query: growth inhibition of entry CC1(C)N=C(N)N=C(N)N1c1ccc(-c2ccccc2)cc1
2.95

I am curious: what growth inhibition value has been reported for O=C1CCc2cc3c(cc21)CC1(Cc2cc4c(cc2C1)CCCC4)C3 ?
-28.4

// returns reported growth inhibition for input CCOC1C=CCCC1 (stereo unspecified)
-1.75

Name the recorded growth inhibition for Cc1ccc(C(O)/C(=N/N)c2nc3ccc([N+](=O)[O-])cc3[nH]c2=O)cc1 (stereo unspecified) .
6.45

Given the entry S=C(Cl)Sc1ccc(-c2ccc(SC(=S)Cl)cc2)cc1 , report its measured growth inhibition.
2.7

I would be grateful if you could share the reported growth inhibition for COC(=O)CCC(=O)c1cc(OC)c2cc3ccccc3cc2c1OC .
9.2

May I ask what growth inhibition has been recorded for O=[N+]([O-])c1cc(Cl)ccc1Sc1ccccc1 ?
39.6

For the compound shown here, COCc1cc(=O)c(OC)cn1CCO , give the reported growth inhibition.
-40.5

For the compound O=C1NC(Cc2ccccc2)C(=O)N2CCCC12 (stereo unspecified) , what growth inhibition is on record?
2.55

# lookup: growth inhibition of N#CC(=O)Nc1ccc(F)cc1
-58.3

# input compound: O=C(COc1ccccc1)OC1CCCCC1C1CCCCC1 (stereo unspecified) ; wanted: its growth inhibition
13.2
